B1: Pistol ribozyme (parent)
chain: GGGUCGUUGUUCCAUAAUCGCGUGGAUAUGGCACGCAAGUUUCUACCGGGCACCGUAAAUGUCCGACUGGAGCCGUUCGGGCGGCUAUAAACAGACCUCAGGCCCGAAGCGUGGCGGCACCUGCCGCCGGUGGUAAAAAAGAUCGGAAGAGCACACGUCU

Variants of: B1
Assay: aptazyme ON/OFF ratio, guanine; higher = stronger switching; co-transcriptional cleavage with and without guanine
measuredQuantity: aptazyme ON/OFF ratio
Simply state the number, no unit and no words.

Here is how some variants turned out for aptazyme ON/OFF ratio.
U8G G9U C13G :: 1.1
U7A G9C U11A C12U C13U :: 1.16
U7G G9C U10C U11C C12A C13G :: 1.09

Provide aptazyme ON/OFF ratio value for the following variant: U7C U8A G9A U10G U11C C12U C13G
1.14

Provide aptazyme ON/OFF ratio value for the following variant: U8A G9U U10C U11G C12G
1.09

Provide aptazyme ON/OFF ratio value for the following variant: U7G U8A G9C U10G C12A C13G
1.03
